molecular target: human AspH (His6-AspH315–758) (Homo sapiens); construct: N-Terminally His6-tagged human AspH315–758 (His6-AspH315–758) was produced in Escherichia coli BL21 (DE3) cells; made in house; host or cells: Escherichia coli BL21 (DE3), pET-28a(+) vector; test: SPE-MS AspH inhibition assay (hFX-CP101-119 substrate hydroxylation); type: biochemical; settings: AspH-inhibitor screening, 384-well Plate 1, substrate conversion
Structures can show the parent of a compound that is named as a salt.
Label rule, in plain words: Plate 1 (% conversion) of 50% and up is satisfied, under 50% is not satisfied.

Use these answered entries as a reference point.
Exercise: Is it the case that C/C(=C\c1csc(C)n1)[C@@H]1C[C@@H]2O[C@]2(C)CCC[C@H](C)[C@H](O)[C@@H](C)C(=O)C(C)(C)[C@@H](O)CC(=O)O1 has Plate 1 (% conversion) reaching or exceeding 50%?
Solution: satisfied

Exercise: Is it the case that CN1CCC(COc2cnc(-c3cccc(Cn4nc(-c5cccc(C#N)c5)ccc4=O)c3)nc2)CC1 has Plate 1 (% conversion) reaching or exceeding 50%?
Solution: not satisfied

Exercise: Is it the case that COc1cc(F)c(F)c(Nc2ccc(I)cc2F)c1NS(=O)(=O)C1(C[C@H](O)CO)CC1 has Plate 1 (% conversion) reaching or exceeding 50%?
Solution: not satisfied

Exercise: Is it the case that CC(C)(C)c1cc(NC(=O)Nc2ccc(-c3cn4c(n3)sc3cc(OCCN5CCOCC5)ccc34)cc2)no1 has Plate 1 (% conversion) reaching or exceeding 50%?
Solution: satisfied

Exercise: Is it the case that Nc1nc(OCc2cc(Br)cs2)c2[nH]cnc2n1 has Plate 1 (% conversion) reaching or exceeding 50%?
Solution: not satisfied

Exercise: Is it the case that CN(C)C/C=C/C(=O)Nc1cc2c(Nc3ccc(F)c(Cl)c3)ncnc2cc1O[C@H]1CCOC1 has Plate 1 (% conversion) reaching or exceeding 50%?
Solution: satisfied

Exercise: Is it the case that CO[C@H]1/C=C\C=C(/C)C(=O)NC2=CC(=O)C(NCCN(C)C)=C(C[C@@H](C)C[C@H](OC)[C@H](O)[C@@H](C)/C=C(\C)[C@@H]1OC(N)=O)C2=O has Plate 1 (% conversion) reaching or exceeding 50%?
Solution: satisfied

Exercise: Is it the case that O=[N+]([O-])c1ccc2c(c1)S(=O)(=O)C=C2 has Plate 1 (% conversion) reaching or exceeding 50%?
Solution: not satisfied

---
Exercise: Is it the case that COc1cccc2c1C(=O)c1c(O)c3c(c(O)c1C2=O)C[C@@](O)(C(C)=O)C[C@@H]3O[C@H]1C[C@H](N)[C@H](O)[C@H](C)O1 [Daunorubicin hydrochloride] has Plate 1 (% conversion) reaching or exceeding 50%?
Solution: satisfied

Exercise: Is it the case that CC[C@@H]1C(=O)N(C)c2cnc(Nc3ccc(C(=O)N[C@H]4CC[C@H](N5CCN(CC6CC6)CC5)CC4)cc3OC)nc2N1C(C)C has Plate 1 (% conversion) reaching or exceeding 50%?
Solution: satisfied

Exercise: Is it the case that Cn1c(Nc2ccc(C(F)(F)F)cc2)nc2cc(Oc3ccnc(-c4ncc(C(F)(F)F)[nH]4)c3)ccc21 has Plate 1 (% conversion) reaching or exceeding 50%?
Solution: not satisfied

###

target: human AspH (His6-AspH315–758) (Homo sapiens); construct: N-Terminally His6-tagged human AspH315–758 (His6-AspH315–758) was produced in Escherichia coli BL21 (DE3) cells; made in house; host or cells: Escherichia coli BL21 (DE3), pET-28a(+) vector; experiment: SPE-MS AspH inhibition assay (hFX-CP101-119 substrate hydroxylation); assay type: biochemical; details: AspH-inhibitor screening, Plate 1-duplicate
Structures can show the parent of a compound that is named as a salt.
Test readout: Plate 1-duplicate (% inhibition) (%)
Response body: numeric value in %, unit text excluded.

Exercise: I'd like to know its Plate 1-duplicate (% inhibition). The compound in question is Cc1ccc(-n2nc(C(C)(C)C)cc2NC(=O)Nc2ccc(OCCN3CCOCC3)c3ccccc23)cc1
Solution: 2.76

Exercise: I'd like to know its Plate 1-duplicate (% inhibition). The compound in question is CC[C@@H]1C(=O)OC[C@@H]1Cc1cncn1C
Solution: 17.17

---
Exercise: I'd like to know its Plate 1-duplicate (% inhibition). The compound in question is Cc1ccc(-c2cc(C(F)(F)F)nn2-c2ccc(S(N)(=O)=O)cc2)cc1
Solution: -15.35

Exercise: I'd like to know its Plate 1-duplicate (% inhibition). The compound in question is CN1CCC(COc2cnc(-c3cccc(Cn4nc(-c5cccc(C#N)c5)ccc4=O)c3)nc2)CC1
Solution: 3.19

Exercise: I'd like to know its Plate 1-duplicate (% inhibition). The compound in question is CNNCc1ccc(C(=O)NC(C)C)cc1 [Procarbazine hydrochloride]
Solution: 5.52

Exercise: I'd like to know its Plate 1-duplicate (% inhibition). The compound in question is C=CCNC1=C2C[C@@H](C)C[C@H](OC)[C@H](O)[C@@H](C)/C=C(\C)[C@H](OC(N)=O)[C@@H](OC)/C=C\C=C(/C)C(=O)NC(=CC1=O)C2=O
Solution: -13.53

Exercise: I'd like to know its Plate 1-duplicate (% inhibition). The compound in question is CC[C@]1(O)C[C@@H]2CN(CCc3c([nH]c4ccccc34)[C@@](C(=O)OC)(c3cc4c(cc3OC)N(C)[C@H]3[C@@](O)(C(=O)OC)[C@H](OC(C)=O)[C@]5(CC)C=CCN6CC[C@]43[C@@H]65)C2)C1 [Vinblastine sulfate]
Solution: -30.80

###

Molecular target: human AspH (His6-AspH315–758) (Homo sapiens, UniProt Q12797)
Construct: N-Terminally His6-tagged human AspH315–758 (His6-AspH315–758) was produced in Escherichia coli BL21 (DE3) cells; made in house; host or cells: Escherichia coli BL21 (DE3), pET-28a(+) vector
Sequence (Q12797 315-758): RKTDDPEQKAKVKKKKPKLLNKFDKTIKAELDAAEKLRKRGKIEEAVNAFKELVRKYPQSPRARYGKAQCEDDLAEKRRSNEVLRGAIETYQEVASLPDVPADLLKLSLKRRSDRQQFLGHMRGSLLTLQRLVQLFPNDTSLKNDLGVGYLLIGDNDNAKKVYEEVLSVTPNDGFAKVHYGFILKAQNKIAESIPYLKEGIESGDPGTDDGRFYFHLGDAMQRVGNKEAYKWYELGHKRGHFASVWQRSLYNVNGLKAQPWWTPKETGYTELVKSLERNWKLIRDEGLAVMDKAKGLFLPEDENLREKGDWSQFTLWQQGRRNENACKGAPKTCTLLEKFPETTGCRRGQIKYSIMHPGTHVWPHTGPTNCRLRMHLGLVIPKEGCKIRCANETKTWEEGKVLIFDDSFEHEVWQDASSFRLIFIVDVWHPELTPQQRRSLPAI
Assay: SPE-MS AspH inhibition assay (hFX-CP101-119 substrate hydroxylation)
Assay type: biochemical
Conditions: AspH-inhibitor screening, 384-well Plate 1
Where a name gives a salt, the structure may show the parent alone.
Test readout: Plate 1 (% inhibition) (%)
Response body: numeric value in %, unit text excluded.

Some solved cases for reference:
Exercise: I'd like to know its Plate 1 (% inhibition). The compound in question is O=P1(NCCCl)OCCCN1CCCl (stereo not drawn) [Ifosfamide]
Solution: 7.87

Exercise: I'd like to know its Plate 1 (% inhibition). The compound in question is C#Cc1cccc(Nc2ncnc3cc(OC)c(OCCCCCCC(=O)NO)cc23)c1
Solution: 70.67

Exercise: I'd like to know its Plate 1 (% inhibition). The compound in question is O=C(CCCCCCC(=O)Nc1ccccc1)NO
Solution: 3.50

---
Exercise: I'd like to know its Plate 1 (% inhibition). The compound in question is C[C@@H](Oc1cc(-c2cnn(C3CCNCC3)c2)cnc1N)c1c(Cl)ccc(F)c1Cl [PF-2341066 (Crizotinib)]
Solution: -4.19

Exercise: I'd like to know its Plate 1 (% inhibition). The compound in question is C=CCNC1=C2C[C@@H](C)C[C@H](OC)[C@H](O)[C@@H](C)/C=C(\C)[C@H](OC(N)=O)[C@@H](OC)/C=C\C=C(/C)C(=O)NC(=CC1=O)C2=O
Solution: -8.89

Exercise: I'd like to know its Plate 1 (% inhibition). The compound in question is COc1cc2c(cc1-c1c(C)noc1C)ncc1[nH]c(=O)n([C@H](C)c3ccccn3)c12 [I-BET151 (GSK1210151A)]
Solution: 3.78

Exercise: I'd like to know its Plate 1 (% inhibition). The compound in question is COc1ccc(-c2cc3c(C)nc(N)nc3n([C@H]3CC[C@H](OCCO)CC3)c2=O)cn1
Solution: -6.58

Exercise: I'd like to know its Plate 1 (% inhibition). The compound in question is CS(=O)(=O)c1ccc(C2=C(c3ccccc3)C(=O)OC2)cc1
Solution: 0.07

Exercise: I'd like to know its Plate 1 (% inhibition). The compound in question is Cc1ccc(NC(=O)c2ccc(CN3CCN(C)CC3)cc2)cc1Nc1nc(-c2cccnc2)cs1
Solution: -15.10

Exercise: I'd like to know its Plate 1 (% inhibition). The compound in question is NCC(=O)CCC(=O)O [Aminolevulinic acid hydrochloride]
Solution: 20.47

Exercise: I'd like to know its Plate 1 (% inhibition). The compound in question is CC(C)Cn1cnc2c(N)nc3ccccc3c21
Solution: 3.84

Exercise: I'd like to know its Plate 1 (% inhibition). The compound in question is CC(O)(CS(=O)(=O)c1ccc(F)cc1)C(=O)Nc1ccc(C#N)c(C(F)(F)F)c1 (stereo not drawn) [Bicalutamide]
Solution: -2.20

Exercise: I'd like to know its Plate 1 (% inhibition). The compound in question is Cn1nnc2c(C(N)=O)ncn2c1=O [Temozolomide]
Solution: 5.12
